These data points were gathered from PubChem BioAssay (NCI).

tested on: NCI-H460 lung; test: NCI tumour cell line growth inhibition, 48 h
ASSAY METRIC: TGI (µM)
# output: bare number, implied unit µM

Some solved cases for reference:
COMPOUND	TGI / µM
O=C(/C=C\c1ccc2ccccc2n1)c1cc(Cl)ccc1O	42.6
OCCO[P+]1(OCCO)n2c3ccc2C(c2ccccc2)=C2C=CC(=N2)C(c2ccccc2)=c2ccc(n21)=C(c1ccccc1)C1=NC(=C3c2ccccc2)C=C1	1.04
Nc1ccc(-n2c(=O)oc3ccc(Cl)cc3c2=O)c(Cl)c1	3.74
CC(C)CCC[C@@H](C)[C@H]1CCC2C3=CCC4C(=O)C=CC(=O)C4C3CC[C@@]21C (stereo not given in full)	2.59
COC(=O)[C@@H]1CCCN1C(=O)[C@H]1CCCN1C(=O)[C@@H](Cc1c[nH]c2ccccc12)NC(=S)Nc1cc(C(F)(F)F)cc(C(F)(F)F)c1	4.26
CC(C)=CC1CC(C)C2(CCC3(C)CC4C(C(=O)CC4(C)O)/C(C=O)=C\CC32)O1 (stereo not given)	0.283
CCC(=O)c1ccc2c(c1)N(CCCN1CCN(CCO)CC1)c1ccccc1S2	33.5
NCCCCNC1(c2cc3ccccc3s2)CCCCC1	7.42

Kindly consider the entry below.
Task: I am curious: what TGI value has been reported for `O=[N+]([O-])/C=C/c1ccc([N+](=O)[O-])cc1` ?
Result: 22.6
